Target: Virion infectivity factor (Human immunodeficiency virus type 1 group M subtype B (isolate BH10)) + Virion infectivity factor (Human immunodeficiency virus type 1 group M subtype B (isolate BRU/LAI)) + Virion infectivity factor (Human immunodeficiency virus type 1 group M subtype B (isolate PCV12)) + Virion infectivity factor (Human immunodeficiency virus type 1 group M subtype B (isolate HXB2)) + DNA dC->dU-editing enzyme APOBEC-3G (Homo sapiens) (UniProt P69720+P69721+P69722+P69723+Q9HC16)
Assay: inhibitors of Vif binding to APOBEC3G peptide, primary screen, biochemical, TR-FRET, GST-Vif 1-94, biotin-A3G peptide, dose response retest (AID 1117319);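 also: Vif residues 1-94 fused to GST binding biotinylated APOBEC3G peptide 110-148; 0% = full assay without inhibitor and 100% = GST in place of GST-Vif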
Conditions: stronger effect = higher value
Out of some 260,000 compounds screened, about 1,500 (0.58%) were called active. Not shown: some 5% with an inconclusive outcome. A selection follows. Potency and affinity values are given separately.
Below is a list of entries, each paired with its recorded inhibition value.

chem smiles: O=c1oc2cc(O)ccc2c2oc3cc(O)ccc3c12
inhibition, %: 21.4

chem smiles: O=c1oc2cc(O)ccc2c2ccccc12
inhibition, %: -45.8

chem smiles: O=c1oc2cc(O)c(Cl)cc2c2ccccc12
inhibition, %: -238

chem smiles: O=C(O)CCCNC(=O)c1cncc(Br)c1
inhibition, %: -4.15

chem smiles: CCOC(=O)c1c(C)oc(=O)c(CC)c1O
inhibition, %: -0.93

chem smiles: CCOc1c(Cl)cc(CNc2ccc(N3CCCC3)cc2)cc1OC
inhibition, %: -0.34

chem smiles: CCc1ccccc1NC1=NCC(=O)N1Cc1ccc(OC)cc1
inhibition, %: -4.85
